# melting point listing for each entry below

Consider the following illustrative entries.
chemical.smiles | melting point
COc1ccc(-c2c[nH]c3c(OCCCNC(C)=O)ccc(F)c3c2=O)cc1 | 229 to 231 °C
CCCOc1ccc(F)c2c(=O)c(-c3ccc(OC)cc3)c[nH]c12 | 196 to 197 °C

Given the molecule CCCOc1ccc(F)c2c(=O)c(-c3ccc(OC(F)(F)F)cc3)c(C)[nH]c12 , what is its reported melting point?
167 to 168 °C

Given the molecule COc1ccc(-c2c[nH]c3c(N(C)C(C)C)ccc(F)c3c2=O)cc1 , what is its reported melting point?
267 to 269 °C

Given the molecule COc1ccc(-c2c[nH]c3c(OC(C)C)ccc(F)c3c2=O)cc1 , what is its reported melting point?
193 to 194 °C

Given the molecule CCCOc1ccc(F)c2c(=O)c(-c3ccc(OC)nc3OC)c[nH]c12 , what is its reported melting point?
198 to 199 °C

Given the molecule CCCOc1ccc(F)c2c(=O)c(-c3ccncc3)c[nH]c12 , what is its reported melting point?
259 to 261 °C

Given the molecule CCCOc1ccc(F)c2c(=O)c(-c3cccs3)c(C)[nH]c12 , what is its reported melting point?
233 to 234 °C

Given the molecule COc1ccc(-c2c[nH]c3c(N4CCOCC4)ccc(F)c3c2=O)cc1 , what is its reported melting point?
249 to 251 °C

---

# melting point listing for each entry below

compound | melting point
CCCOc1ccc(F)c2c(=O)c(-c3ccc(N(C)C)cc3)c(C)[nH]c12 [Example 73] | 255 to 257 °C
CCCOc1ccc(F)c2c(=O)c(-c3ccc(C(=O)OC)cc3)c[nH]c12 [Example 55] | 201 to 202 °C
CCCOc1ccc(F)c2c(=O)c(-c3ccc(CC)cc3)c(C)[nH]c12 [Example 71] | 221 to 222 °C

Given the compound CCCOc1ccc(F)c2c(=O)c(-c3ccc(OC)c(OC)c3)c[nH]c12 [Example 62] , what is its reported melting point?
217 to 218 °C

Given the compound COc1ccc(-c2c(C)[nH]c3c(OCC4CC4)ccc(F)c3c2=O)cc1 [Example 47] , what is its reported melting point?
167 to 169 °C

Given the compound CCCOc1ccc(F)c2c(=O)c(-c3ccc(OC)cc3OC(C)C)c[nH]c12 [Example 15] , what is its reported melting point?
204 to 206 °C

Given the compound COc1ccc(-c2c[nH]c3c(Br)ccc(F)c3c2=O)cc1 [Example 22] , what is its reported melting point?
134 to 135 °C

Given the compound CCCOc1ccc(F)c2c(=O)c(-c3ccc(SC)cc3)c[nH]c12 [Example 38] , what is its reported melting point?
198 to 199 °C

Given the compound CCCOc1ccc(F)c2c(=O)c(-c3ccco3)c(C(C)C)[nH]c12 [Example 84] , what is its reported melting point?
113 to 114 °C

---

# melting point listing for each entry below

Consider the following illustrative entries.
chemical.smiles | melting point
COc1ccc(-c2c[nH]c3c(-c4ccco4)ccc(F)c3c2=O)cc1 | 209 to 211 °C
COc1ccc(-c2c[nH]c3c(N(C)CC(C)C)ccc(F)c3c2=O)cc1 | 144 to 145 °C

Given the compound CCCOc1ccc(F)c2c(=O)c(-c3ccc(OC)cc3C)c[nH]c12 , what is its reported melting point?
197 to 199 °C

Given the compound CCCOc1ccc(F)c2c(=O)c(-c3ccc(OC)c(F)c3)c[nH]c12 , what is its reported melting point?
194 to 195 °C

Given the compound CCCOc1ccc(F)c2c(=O)c(-c3ccc(Oc4ccccc4)cc3)c[nH]c12 , what is its reported melting point?
228 to 230 °C

Numbers sourced from patent US20160304461A1.
